Examples of compounds with documented MIC=<90 follow.
test system: Polyketide synthase Pks13 (Mycobacterium tuberculosis (strain ATCC 25618 / H37Rv)), I6X8D2 [D1644G,N1640K]; assay: Inhibition of Pks13 D1644G/N1640K double mutant thioesterase domain in extensively drug-resistant Mycobacterium tuberculosis TF274 assessed as reduction in bacterial growth by microplate alamar blue assay
Please state the figure in mg/L; there is no need to write the unit.

Some entries whose results are on file:
CC1COc2c(N3CCN(C)CC3)c(F)cc3c(=O)c(C(=O)O)cn1c23 (configuration not stated); 8
CC(C)(C)c1cc(O)c(CN2CCCCC2)c2c1oc1c3ccc(O)cc3oc(=O)c12; 0.0039
NNC(=O)c1ccncc1; 8
O=c1oc2cc(O)ccc2c2oc3ccc(O)c(CN4CCCCC4)c3c12; 0.0078

We next turn to a different compound, shown below.
Value of measured MIC=<90 for the entry C[C@H]1COc2c(N3CCN(C)CC3)c(F)cc3c(=O)c(C(=O)O)cn1c23 : 1

###

system: Polyketide synthase Pks13 (Mycobacterium tuberculosis (strain ATCC 25618 / H37Rv)), I6X8D2 [D1644G,N1640K]; assay: Inhibition of Pks13 D1644G/N1640K double mutant thioesterase domain in Mycobacterium tuberculosis H37Rv assessed as reduction in bacterial growth by microplate alamar blue assay
quantity: MIC=<90 (µg/mL)
Please state the figure in µg/mL; there is no need to write the unit.

O=c1oc2ccccc2c2oc3c(Br)cc(O)c(CN4CCCCC4)c3c12; 2

Value of measured MIC=<90 for the entry CNC(=O)c1c(-c2ccc(O)cc2)oc2ccc(O)c(CN3CCCCC3)c12 : 0.0313

Value of measured MIC=<90 for the entry O=c1oc2cc(O)ccc2c2oc3cc(O)c(O)c(CN4CCCCC4)c3c12 : 2

Value of measured MIC=<90 for the entry NC[C@H]1O[C@H](O[C@H]2[C@H](O)[C@@H](O[C@H]3O[C@H](CO)[C@@H](O)[C@H](N)[C@H]3O)[C@H](N)C[C@@H]2N)[C@H](O)[C@@H](O)[C@@H]1O : 2

###

test system: Polyketide synthase Pks13 (Mycobacterium tuberculosis (strain ATCC 25618 / H37Rv)), I6X8D2 [D1644G,N1640K]; experiment: Inhibition of Pks13 D1644G/N1640K double mutant thioesterase domain in Mycobacterium tuberculosis H37Rv assessed as reduction in bacterial growth by microplate alamar blue assay
quantity: MIC=<90 (µg/mL)
Please state the figure in µg/mL; there is no need to write the unit.

NNC(=O)c1ccncc1; 0.04
CC[C@@H](CO)NCCN[C@@H](CC)CO; 1
O=c1oc2ccccc2c2oc3cc(O)c(O)c(CN4CCCCC4)c3c12; 4

We next turn to a different compound, shown below.
Value of measured MIC=<90 for the entry O=c1oc2ccccc2c2oc3ccc(O)c(CN4CCCC4)c3c12 : 0.5

###

tested on: Polyketide synthase Pks13 (Mycobacterium tuberculosis (strain ATCC 25618 / H37Rv)), I6X8D2 [D1644G,N1640K]; experiment: Inhibition of Pks13 D1644G/N1640K double mutant thioesterase domain in multidrug-resistant Mycobacterium tuberculosis V2475 assessed as reduction in bacterial growth by microplate alamar blue assay
quantity: MIC=<90

Some entries whose results are on file:
NC[C@H]1O[C@H](O[C@H]2[C@H](O)[C@@H](O[C@H]3O[C@H](CO)[C@@H](O)[C@H](N)[C@H]3O)[C@H](N)C[C@@H]2N)[C@H](O)[C@@H](O)[C@@H]1O; 2 µg/mL
CC(C)(C)c1cc(O)c(CN2CCCCC2)c2c1oc1c3ccc(O)cc3oc(=O)c12; 0.0156 µg/mL

We next turn to a different compound, shown below.
Value of measured MIC=<90 for the entry CO[C@H]1/C=C/O[C@@]2(C)Oc3c(C)c(O)c4c(O)c(c(/C=N/N5CCN(C)CC5)c(O)c4c3C2=O)NC(=O)/C(C)=C\C=C\[C@H](C)[C@H](O)[C@@H](C)[C@@H](O)[C@@H](C)[C@H](OC(C)=O)[C@@H]1C : 4 µg/mL

###

test system: Polyketide synthase Pks13 (Mycobacterium tuberculosis (strain ATCC 25618 / H37Rv)), I6X8D2 [D1644G,N1640K]; test: Inhibition of Pks13 D1644G/N1640K double mutant thioesterase domain in extensively drug-resistant Mycobacterium tuberculosis R506 assessed as reduction in bacterial growth by microplate alamar blue assay
Examples of molecules with documented MIC=<90 follow.
Please state the figure in µg/mL; there is no need to write the unit.

Some entries whose results are on file:
CC1COc2c(N3CCN(C)CC3)c(F)cc3c(=O)c(C(=O)O)cn1c23 (configuration not stated); 4
NNC(=O)c1ccncc1; 8
O=c1oc2cc(O)ccc2c2oc3ccc(O)c(CN4CCCCC4)c3c12; 0.0078
CC(C)(C)c1cc(O)c(CN2CCCCC2)c2c1oc1c3ccc(O)cc3oc(=O)c12; 0.0039

Value of measured MIC=<90 for the entry C[C@H]1COc2c(N3CCN(C)CC3)c(F)cc3c(=O)c(C(=O)O)cn1c23 : 2

###

tested on: Polyketide synthase Pks13 (Mycobacterium tuberculosis (strain ATCC 25618 / H37Rv)), I6X8D2 [D1644G,N1640K]; assay: Inhibition of Pks13 D1644G/N1640K double mutant thioesterase domain in drug-susceptible Mycobacterium tuberculosis V4207 assessed as reduction in bacterial growth by microplate alamar blue assay
Examples of compounds with documented MIC=<90 follow.
Please state the figure in µg/mL; there is no need to write the unit.

Some entries whose results are on file:
CC1COc2c(N3CCN(C)CC3)c(F)cc3c(=O)c(C(=O)O)cn1c23 (configuration not stated); 0.5
NNC(=O)c1ccncc1; 0.04
C[C@H]1COc2c(N3CCN(C)CC3)c(F)cc3c(=O)c(C(=O)O)cn1c23; 0.125
NC[C@H]1O[C@H](O[C@H]2[C@H](O)[C@@H](O[C@H]3O[C@H](CO)[C@@H](O)[C@H](N)[C@H]3O)[C@H](N)C[C@@H]2N)[C@H](O)[C@@H](O)[C@@H]1O; 2
O=c1oc2cc(O)ccc2c2oc3ccc(O)c(CN4CCCCC4)c3c12; 0.0078

We next turn to a different compound, shown below.
Value of measured MIC=<90 for the entry CO[C@H]1/C=C/O[C@@]2(C)Oc3c(C)c(O)c4c(O)c(c(/C=N/N5CCN(C)CC5)c(O)c4c3C2=O)NC(=O)/C(C)=C\C=C\[C@H](C)[C@H](O)[C@@H](C)[C@@H](O)[C@@H](C)[C@H](OC(C)=O)[C@@H]1C : 0.0625

###

test system: Polyketide synthase Pks13 (Mycobacterium tuberculosis (strain ATCC 25618 / H37Rv)), I6X8D2 [D1644G,N1640K]; assay: Inhibition of Pks13 D1644G/N1640K double mutant thioesterase domain in Mycobacterium tuberculosis H37Rv assessed as reduction in bacterial growth by microplate alamar blue assay
Examples of molecules with documented MIC=<90 follow.
Please state the figure in µg/mL; there is no need to write the unit.

COc1cc2oc3c4ccccc4oc(=O)c3c2c(CN2CCCCC2)c1O; 2
O=c1oc2cc(O)ccc2c2oc3ccc(O)c(CN4CCCCC4)c3c12; 0.0039

Value of measured MIC=<90 for the entry C[C@@H]1NC(=O)[C@@H](N)CNC(=O)[C@H](C2CCNC(=N)N2)NC(=O)/C(=C/NC(N)=O)NC(=O)[C@H](CNC(=O)CC(N)CCCN)NC1=O.N=C1NCCC([C@@H]2NC(=O)/C(=C/NC(N)=O)NC(=O)[C@H](CNC(=O)CC(N)CCCN)NC(=O)[C@H](CO)NC(=O)[C@@H](N)CNC2=O)N1 (stereo partly drawn) : 1

Value of measured MIC=<90 for the entry CC(C)(C)c1cc(O)c(CN2CCCCC2)c2c1oc1c3ccc(O)cc3oc(=O)c12 : 0.0039

Value of measured MIC=<90 for the entry Cc1cc(O)c(CN2CCCCC2)c2c1oc1c3ccccc3oc(=O)c12 : 0.125

###

test system: Polyketide synthase Pks13 (Mycobacterium tuberculosis (strain ATCC 25618 / H37Rv)), I6X8D2 [D1644G,N1640K]; test: Inhibition of Pks13 D1644G/N1640K double mutant thioesterase domain in Mycobacterium tuberculosis H37Rv assessed as reduction in bacterial growth by microplate alamar blue assay
quantity: MIC=<90 (µg/mL)
Please state the figure in µg/mL; there is no need to write the unit.

Some entries whose results are on file:
CO[C@H]1/C=C/O[C@@]2(C)Oc3c(C)c(O)c4c(O)c(c(/C=N/N5CCN(C)CC5)c(O)c4c3C2=O)NC(=O)/C(C)=C\C=C\[C@H](C)[C@H](O)[C@@H](C)[C@@H](O)[C@@H](C)[C@H](OC(C)=O)[C@@H]1C; 0.125
O=c1oc2ccccc2c2oc3c(Cl)cc(O)c(CN4CCCCC4)c3c12; 2
CC1CCN(Cc2c(O)ccc3oc4c5ccccc5oc(=O)c4c23)CC1; 0.5

Value of measured MIC=<90 for the entry NCC[C@H](O)C(=O)N[C@@H]1C[C@H](N)[C@@H](O[C@H]2O[C@H](CN)[C@@H](O)[C@H](O)[C@H]2O)[C@H](O)[C@H]1O[C@H]1O[C@H](CO)[C@@H](O)[C@H](N)[C@H]1O : 1
